Experiment: GHS categories as the set defines them, by LD50: 1 up to 5, 2 up to 50, 3 up to 300, 4 up to 2000, 5 above 2000 mg/kg
Conditions: rat; in vivo; po
RECORDED METRIC: GHS category

Entry O=C1CC(N2C(=O)c3ccccc3C2=O)CC(=O)N1CN1CCOCC1 ; GHS category = 5

Entry CC1=NN(c2cccc(S(=O)(=O)O)c2)C(=O)C1/N=N/c1cc(Cl)c(C)cc1S(=O)(=O)O (stereo unspecified) ; GHS category = 5

Entry CNC(=O)C(=NNc1ccc([N+](=O)[O-])cc1)C(C)=O ; GHS category = 5

Entry COC(=O)c1c(C)nc(C)c(C(=O)O)c1-c1cc([N+](=O)[O-])ccc1F ; GHS category = 5

Entry O=C1OC(=O)c2c(Br)c(Br)c(Br)c(Br)c21 ; GHS category = 5

Entry CCc1ccc(OCC=C(C)CCC2OC2(C)C)cc1 (stereo unspecified) ; GHS category = 5

Entry COc1cc(OC)c2oc(C3(Cn4cncn4)OCCO3)cc2c1 ; GHS category = 4

Entry CCC1(c2ccc(O)cc2)NC(=O)NC1=O (stereo unspecified) ; GHS category = 5

Entry CC#CCC(C)[C@H](O)/C=C/C1[C@H](O)C[C@@H]2C/C(=C\CCCC(=O)O)C[C@H]12 (stereo partly specified) ; GHS category = 3

Entry CN(CC1(C)CCCO1)S(=O)(=O)c1ccc(Cl)c(S(N)(=O)=O)c1 (stereo unspecified) ; GHS category = 5

Entry Cc1ncc(COP(=O)(O)O)c(CN)c1O ; GHS category = 5

###

Please provide measured GHS category for the entries that follow.
Assay: GHS categories as the set defines them, by LD50: 1 up to 5, 2 up to 50, 3 up to 300, 4 up to 2000, 5 above 2000 mg/kg
Conditions: rat; in vivo; po
Excerpt: […]The data set underlying the modeling effort for this project was initially compiled by NICEATM and U.S. EPA’s CCTE. Briefly, LD50 data were collected from rat acute oral systemic toxicity tests, including limit tests, ranges/confidence intervals, and discrete LD50 values. The full data set included 21,200 LD50 entries for 15,688 substances. […]

Entry CNC(=O)Oc1cccc2c1OC(C)(C(C)(C)C)O2 (centres undefined) ; GHS category = 4

Entry N#Cc1cccc(C2=C3C(=O)NC(c4cccc(C#N)c4)=C3C(=O)N2)c1 ; GHS category = 5

Entry CCCCOC(=O)c1ccc(-n2nc(OCCN(C)C)c3ccccc32)cc1 ; GHS category = 4

Entry CCCCCCCCCCCCCOC(=O)CCCCC(=O)OCCCCCCCCCCCCC ; GHS category = 5

Entry C/C=C(\C)C(=O)OC(C)C ; GHS category = 5

Entry CCCCCCCCCCCCCCCc1cccc(OC(=O)c2cc(Cl)ccc2OC(N)=O)c1 ; GHS category = 5

Entry c1ccc2[nH]nnc2c1 ; GHS category = 4

Entry CC[n+]1c(C=Cc2ccc(N3CCCC3)cc2)cccc1C=Cc1ccc(N2CCCC2)cc1 ; GHS category = 5

Entry COc1cc2nc(N3CCCC(N(C)Cc4ccc5c(c4)OCO5)C3)nc(N)c2cc1OC (centres undefined) ; GHS category = 4

Entry COC[C@H]1CO[C@@](Cn2cncn2)(c2cc3ccccc3o2)O1 ; GHS category = 4

Entry N=c1ccn2c(n1)O[C@H]1[C@H](O)[C@@H](CO)O[C@H]12 ; GHS category = 5

Entry CCCCCCCC/C=C\CCCCCCCC#N ; GHS category = 5

Entry CCOCC(O)COc1ccc(NC(=O)CC[S+](C)C)cc1 (centres undefined) ; GHS category = 5

Entry CCCCCCCC(=O)Nc1ccc(Cc2ccccn2)c([N+](=O)[O-])c1 ; GHS category = 3

Entry CN(C(=O)Cl)c1nnc(C(C)(C)C)s1 ; GHS category = 4

Entry O=C(Cc1ccccc1)C1C(=O)CC(c2ccccc2)CC1=O (centres undefined) ; GHS category = 5

Entry CCO[Si](CCCSSCCC[Si](OCC)(OCC)OCC)(OCC)OCC ; GHS category = 5

Entry NC(=O)NNC(N)=O ; GHS category = 5

Entry C=C(C)CC1CCCCCCCCCCC1=O (centres undefined) ; GHS category = 5

Entry CCCN(CCC)C(=O)C(CCC(=O)OCCOC(=O)COC(=O)Cc1c(C)n(C(=O)c2ccc(Cl)cc2)c2ccc(OC)cc12)NC(=O)c1ccccc1 (centres undefined) ; GHS category = 4

Entry NC(=O)[C@@H]1CCCN1C(=O)[C@H](Cc1cnc[nH]1)NC(=O)[C@@H]1CCC(=O)N1 ; GHS category = 5

Entry CCCCCCCCCCBr ; GHS category = 5

Entry O=C1CCCCCN1SSN1CCCCCC1=O ; GHS category = 5

Entry NNC(=O)NN ; GHS category = 5

###

Test: GHS categories as the set defines them, by LD50: 1 up to 5, 2 up to 50, 3 up to 300, 4 up to 2000, 5 above 2000 mg/kg
Conditions: rat; in vivo; po
Please provide measured GHS category for the entries that follow.
When you answer, write just the number.

Entry OC(Cn1ccnc1)c1ccc(CCc2ccccc2)cc1 (stereo not given) ; GHS category = 5

Entry Cc1c(OCC(F)(F)F)ccnc1CS(=O)c1nc2ccccc2[nH]1 (stereo not given) ; GHS category = 5

Entry O=C(O)CCCC/C=C(\c1ccccc1)c1cccnc1 ; GHS category = 5

Entry O=C[C@H](O)[C@@H](O)[C@H](O)[C@H](O)CO[C@H]1O[C@H](CO[C@H]2O[C@H](CO)[C@@H](O)[C@H](O)[C@H]2O)[C@@H](O)[C@H](O)[C@H]1O ; GHS category = 5

Entry CCNc1nc(Nc2ccccc2)nc(Nc2ccc(C=Cc3ccc(Nc4nc(NCC)nc(Nc5ccccc5)n4)cc3S(=O)(=O)O)c(S(=O)(=O)O)c2)n1 ; GHS category = 5

Entry CC(C)(N=C(O)C(Br)C(C)(C)C)c1ccccc1 (stereo not given) ; GHS category = 5

Entry CN(C)Cn1c(=O)oc2ccc(Cl)cc21 ; GHS category = 4

Entry N#Cc1c[nH]cc1-c1cccc2c1OC(F)(F)O2 ; GHS category = 5

Entry CN(CCOP(=O)(O)O)C(=N)N ; GHS category = 5

Entry CCCc1c(Cc2ccc(-c3ccccc3-c3nn[nH]n3)cc2)c(=O)nc2nc(CC)[nH]n12 ; GHS category = 4

###

Assay: rat acute oral toxicity
Settings: in vivo
Source text: […]The data set underlying the modeling effort for this project was initially compiled by NICEATM and U.S. EPA’s CCTE. Briefly, LD50 data were collected from rat acute oral systemic toxicity tests, including limit tests, ranges/confidence intervals, and discrete LD50 values. The full data set included 21,200 LD50 entries for 15,688 substances. […]
With a cut-off of 300 mg/kg, any LD50 strictly below it is called 1.0; any LD50 meeting it or above is called 0.0.

Problem: Lab log: compare recorded LD50 with 300 mg/kg; is it strictly lower for CC1(C)OC(c2ccco2)CN1C(=O)C(Cl)Cl (stereo not drawn) ?
Result: 0.0

Problem: Lab log: compare recorded LD50 with 300 mg/kg; is it strictly lower for O=C1NC(=O)C2C3C(C(O)(c4ccccc4)c4ccccn4)=CC(C3=C(c3ccccc3)c3ccccn3)C12 (stereo not drawn) ?
Result: 1.0

Problem: Lab log: compare recorded LD50 with 300 mg/kg; is it strictly lower for N#C/N=C1\SCCN1Cc1ccc(Cl)nc1 ?
Result: 1.0

Problem: Lab log: compare recorded LD50 with 300 mg/kg; is it strictly lower for CNC(=O)ON=C(SC)C(=O)N(C)C ?
Result: 1.0

Problem: Lab log: compare recorded LD50 with 300 mg/kg; is it strictly lower for ClC(Cl)(Cl)C(Cl)(Cl)Cl ?
Result: 0.0

Problem: Lab log: compare recorded LD50 with 300 mg/kg; is it strictly lower for CCCCN ?
Result: 0.0

Problem: Lab log: compare recorded LD50 with 300 mg/kg; is it strictly lower for ClSC(Cl)(Cl)Cl ?
Result: 1.0

Problem: Lab log: compare recorded LD50 with 300 mg/kg; is it strictly lower for Cc1ccc(C)c(OCCCC(C)(C)C(=O)O)c1 ?
Result: 0.0

###

Test: GHS categories as the set defines them, by LD50: 1 up to 5, 2 up to 50, 3 up to 300, 4 up to 2000, 5 above 2000 mg/kg
Details: rat; in vivo; po
RECORDED METRIC: GHS category
When you answer, write just the number.

Entry CCNC(=O)[C@@H]1CCCN1C(=O)[C@H](CCCNC(=N)N)NC(=O)[C@H](CC(C)C)NC(=O)[C@@H](CC(C)C)NC(=O)[C@H](Cc1ccc(O)cc1)NC(=O)[C@H](CO)NC(=O)[C@H](Cc1c[nH]c2ccccc12)NC(=O)[C@H](Cc1cnc[nH]1)NC(=O)[C@@H]1CCC(=O)N1 ; GHS category = 5

Entry CC(C)(C)c1ccc(OC(=O)C2CCC(CN=C(N)N)CC2)cc1 (stereo not given) ; GHS category = 2

Entry C[C@@H]1C[C@H]2[C@@H]3CCC4=CC(=O)C=C[C@]4(C)[C@@]3(F)[C@@H](O)C[C@]2(C)[C@@]1(O)C(=O)COS(=O)(=O)O ; GHS category = 5

Entry COc1ccccc1N1CCN(/C(=N\CCCO)Nc2ccccc2)CC1 ; GHS category = 4

Entry CCCCC(CC)COCOCC(CC)CCCC (stereo not given) ; GHS category = 5

Values from the CATMoS acute toxicity set (Mansouri et al. 2021)
